target.or.system: VEGF (used to stimulate HUVEC cells) (UniProt P15692-4 27-191, limits assumed)
Sequence (P15692 other isoform, or with tags, fused parts or gaps limits assumed): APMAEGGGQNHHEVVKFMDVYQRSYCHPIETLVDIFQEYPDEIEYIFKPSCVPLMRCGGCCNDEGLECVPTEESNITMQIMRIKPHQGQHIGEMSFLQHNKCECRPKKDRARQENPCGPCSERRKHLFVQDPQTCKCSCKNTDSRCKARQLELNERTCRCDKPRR
assay.info: cell-based or functional assay
Each record here notes measured IC50, VEGF HUVEC Erk phosphorylation assay.
Write it as a number; the unit nM goes unstated.

Worked set:
1. VEGFBII021 (VHH, not shown: small tags and cut ends, Bivalent (heterodimeric) anti-VEGF VHH; also called VEGFBII23B04-40GS-5B05) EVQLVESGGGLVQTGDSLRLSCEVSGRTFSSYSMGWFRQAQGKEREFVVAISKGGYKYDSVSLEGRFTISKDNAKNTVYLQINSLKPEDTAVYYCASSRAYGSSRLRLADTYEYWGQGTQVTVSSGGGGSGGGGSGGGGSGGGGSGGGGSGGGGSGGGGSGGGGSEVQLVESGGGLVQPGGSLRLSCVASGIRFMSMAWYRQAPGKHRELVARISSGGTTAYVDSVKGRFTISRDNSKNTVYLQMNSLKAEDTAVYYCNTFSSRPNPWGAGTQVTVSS
0.21
2. VEGFBII023 (VHH, not shown: small tags and cut ends, Bivalent anti-VEGF VHH; also called VEGFBII23B04-40GS-10E07) EVQLVESGGGLVQTGDSLRLSCEVSGRTFSSYSMGWFRQAQGKEREFVVAISKGGYKYDSVSLEGRFTISKDNAKNTVYLQINSLKPEDTAVYYCASSRAYGSSRLRLADTYEYWGQGTQVTVSSGGGGSGGGGSGGGGSGGGGSGGGGSGGGGSGGGGSGGGGSEVQLVESGGGLVQAGGSLRLSCAASGRTFSNYAMGWFRQAPGKERVLVADISSSGINTYVADAVKGRFTISRDNAKNTVYLQMNSLKPEDTAVYYCAASAWWYSQMARDNYRYWGQGTQVTVSS
0.25
3. VEGFBII022 (VHH, not shown: small tags and cut ends, Bivalent (heterodimeric) anti-VEGF VHH; also called VEGFBII23B04-9GS-5B05) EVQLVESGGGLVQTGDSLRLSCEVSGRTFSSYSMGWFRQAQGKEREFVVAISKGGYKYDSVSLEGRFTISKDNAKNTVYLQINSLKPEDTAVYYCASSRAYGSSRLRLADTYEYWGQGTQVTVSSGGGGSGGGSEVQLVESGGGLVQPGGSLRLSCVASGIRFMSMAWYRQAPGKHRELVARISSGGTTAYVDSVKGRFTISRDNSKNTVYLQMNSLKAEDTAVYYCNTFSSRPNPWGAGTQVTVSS
0.18

Next up:
Input: Fill blank: measured IC50, VEGF HUVEC Erk phosphorylation assay of the binder VEGFBII025 (VHH, not shown: small tags and cut ends, Bivalent anti-VEGF VHH; also called VEGFBII10E07-40GS-23B04) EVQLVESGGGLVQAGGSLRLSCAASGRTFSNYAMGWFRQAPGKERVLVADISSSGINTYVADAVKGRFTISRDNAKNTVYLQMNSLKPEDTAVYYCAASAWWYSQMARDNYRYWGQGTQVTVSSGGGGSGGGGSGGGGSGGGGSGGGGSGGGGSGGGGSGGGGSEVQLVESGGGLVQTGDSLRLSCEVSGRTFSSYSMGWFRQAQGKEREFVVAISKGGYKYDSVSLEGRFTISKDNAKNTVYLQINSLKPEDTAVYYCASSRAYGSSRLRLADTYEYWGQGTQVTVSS is ____.
Output: 0.23
